Provenance of the data: patent US9193736B2

Molecular target: Human recombinant PDE10A2 (Homo sapiens (Human), UniProt Q9Y233)
Sequence (Q9Y233 267-1055): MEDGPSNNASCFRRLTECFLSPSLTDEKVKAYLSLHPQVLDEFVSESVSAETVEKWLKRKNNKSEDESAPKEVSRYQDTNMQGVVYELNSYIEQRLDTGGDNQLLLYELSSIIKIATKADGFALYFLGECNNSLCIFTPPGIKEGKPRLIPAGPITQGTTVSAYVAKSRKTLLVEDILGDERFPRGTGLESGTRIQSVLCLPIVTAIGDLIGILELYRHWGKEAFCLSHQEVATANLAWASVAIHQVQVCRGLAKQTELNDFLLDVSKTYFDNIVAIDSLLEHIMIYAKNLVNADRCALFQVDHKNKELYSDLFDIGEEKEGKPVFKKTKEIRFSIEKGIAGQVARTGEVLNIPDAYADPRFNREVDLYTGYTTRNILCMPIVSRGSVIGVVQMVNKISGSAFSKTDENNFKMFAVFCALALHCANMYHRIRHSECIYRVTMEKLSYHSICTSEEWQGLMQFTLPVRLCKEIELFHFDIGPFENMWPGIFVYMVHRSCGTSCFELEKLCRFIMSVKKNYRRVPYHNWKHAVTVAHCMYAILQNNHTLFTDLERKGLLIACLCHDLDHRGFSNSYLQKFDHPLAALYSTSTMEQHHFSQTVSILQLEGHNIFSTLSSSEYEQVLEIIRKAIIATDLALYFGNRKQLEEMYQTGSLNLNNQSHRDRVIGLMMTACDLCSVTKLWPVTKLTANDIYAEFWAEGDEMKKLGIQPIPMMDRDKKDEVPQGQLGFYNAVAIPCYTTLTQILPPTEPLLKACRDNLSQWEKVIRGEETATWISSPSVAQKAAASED
Assay: In vitro hPDE10a: human recombinant PDE10A2 scintillation proximity assay, IC50
Conditions: human recombinant PDE10A2, SPA, 60 nM cAMP; read-out: hPDE10a2 IC50
Counter-ions that a name gives are not always drawn.
property-label: IC50 (nM)

molecule="O=C(O)CCNC(=O)c1ccc(-c2c(/C=C/c3ccc4ccccc4n3)nc3c(N4CCOCC4)ccnn23)cc1 [compound 44]" assay_value=4
molecule="c1ccc2nc(SCc3nc4c(N5CCOCC5)ccnn4c3-c3ccc(-c4nnn[nH]4)nc3)ccc2c1 [Cpd 32, trifluoroacetic acid salt]" assay_value=2

I = O=C(O)CCC(=O)N1CCN(c2c(/C=C/c3ccc4ccccc4n3)nc3c(N4CCOCC4)ccnn23)CC1 [compound 155]
II = COc1cc(C(=O)O)ccc1-c1c(/C=C/c2ccc3ccccc3n2)nc2c(N3CCOCC3)ccnn12 [compound 98]
III = c1ccc2nc(SCc3nc4c(N5CCOCC5)ccnn4c3-c3ccc(N4CCNCC4)nc3)ccc2c1 [Cpd 6, trifluoroacetic acid salt]
QUERY: Put the entries in order of IC50, starting with the largest number. Give your ranking as a list of the labels in the requested order.
RESULT: III, I, II
